Please provide measured % inhibition, α-gluc (Bacillus) for the entries that follow.
# Test system: α-D-glucosidase
# testDescription: Glycosidase inhibition: α-D-glucosidase, Bacillus
# Assay type: biochemical, Bacillus stearothermophilus
# assayConditions: 1 mg/ml
Give bare numbers, in %.

| compound | % inhibition, α-gluc (Bacillus), % |
| --- | --- |
| COc1cc([C@H]2N[C@H](CO)[C@@H](O)[C@@H]2O)ccc1O [Compound 65, PLB2] | 37 |
| OC[C@H]1N[C@H](c2ccc(O)cc2)[C@@H](O)[C@@H]1O [Compound 36, PLB1] | 62 |
| OCC1N[C@H](CO)[C@@H](O)[C@@H]1O (stereo partly shown) [DMDP] | 85 |

Kindly review the next compound as well.
Challenge: Tell me its % inhibition, α-gluc (Bacillus) given O[C@@H]1[C@@H]2[C@@H](O)[C@H](O)[C@H](O)CN2C[C@H]1O [Compound 35, 2-α-hydroxy-6-epi-castanospermine] as the entry.
Response given: −12

###

# system: α-D-galactosidase (Coffea arabica)
# Construct: purchased Sigma
# Sequence (Q42656 16-378): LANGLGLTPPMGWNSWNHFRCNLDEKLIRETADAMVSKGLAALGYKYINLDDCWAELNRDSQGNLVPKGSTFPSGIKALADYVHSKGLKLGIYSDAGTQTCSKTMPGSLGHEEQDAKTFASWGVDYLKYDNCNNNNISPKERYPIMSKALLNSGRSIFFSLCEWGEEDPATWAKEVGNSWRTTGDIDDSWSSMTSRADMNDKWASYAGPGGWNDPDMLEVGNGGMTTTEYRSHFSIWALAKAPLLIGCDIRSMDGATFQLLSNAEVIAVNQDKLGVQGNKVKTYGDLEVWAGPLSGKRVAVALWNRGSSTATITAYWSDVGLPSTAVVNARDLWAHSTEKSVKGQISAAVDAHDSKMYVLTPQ
# testDescription: Glycosidase inhibition: α-D-galactosidase
# Assay type: biochemical, Green coffee beans (Coffea sp.)
# assayConditions: 1 mg/ml; read-out: % inhibition, α-galactosidase
# Description: All enzymes were purchased from Sigma, as were the appropriate p-nitrophenyl substrates. Assays were carried out in microtitre plates. […] The reactions were stopped with 0.4M glycine (pH 10.4) during the exponential phase of the reaction, which was determined at the beginning of the assay using blanks with water, which were incubated for a range of time periods to measure the reaction rate using 5 mM substrate solution. […]
measureName: inhibition at 1000 µg/mL
Please report the result as a number followed by the unit.

Worked cases, inhibition at 1000 µg/mL given:
| molecule | inhibition at 1000 µg/mL |
| --- | --- |
| OC[C@H]1N[C@H](c2ccc(O)cc2)[C@@H](O)[C@@H]1O | 43% |
| OCCN1C[C@@H](O)[C@H](O)[C@H]1CO | 4% |
| O[C@@H]1[C@@H]2[C@@H](O)[C@H](O)[C@@H](O)CN2C[C@H]1O [Compound 64, 2-α-hydroxycastanospermine] | -9% |

// next entry
Challenge: Output reported inhibition at 1000 µg/mL of the molecule OCCN1[C@H](CO)[C@@H](O)[C@H](O)[C@H]1CO [N-hydroxyethyl DMDP] on α-D-galactosidase (Coffea arabica).
Response given: 7%

###

# System: α-D-glucosidase
# testDescription: Glycosidase inhibition: α-D-glucosidase, Bacillus
# Type: biochemical, Bacillus stearothermophilus
# assayConditions: 1 mg/ml
Provide the reported % inhibition, α-gluc (Bacillus) of each item.
One number for each entry, in %.

These solved cases illustrate the format of a correct answer.
| compound | measureName | reported |
| --- | --- | --- |
| OCCN1[C@H](CO)[C@@H](O)[C@H](O)[C@H]1CO [N-hydroxyethyl DMDP] | % inhibition, α-gluc (Bacillus) | 85 |
| O[C@@H]1[C@@H]2[C@@H](O)[C@H](O)[C@@H](O)CN2C[C@H]1O [Compound 64, 2-α-hydroxycastanospermine] | % inhibition, α-gluc (Bacillus) | −15 |

Alright, here's another compound for you.
Challenge: Annotate the compound OCCN1C[C@@H](O)[C@H](O)[C@H]1CO [Compound 55] with its measured % inhibition, α-gluc (Bacillus).
Response given: 15

###

# System: Naringinase
# testDescription: Glycosidase inhibition: Naringinase
# Format: biochemical, Penecillium decumbens
# assayConditions: 1 mg/ml
What % inhibition, Naringinase was measured for each of the following?
Answers are plain numbers, in %.

| compound | % inhibition, Naringinase / % |
| --- | --- |
| O[C@@H]1[C@@H]2[C@@H](O)[C@H](O)[C@@H](O)CN2C[C@H]1O [Compound 64, 2-α-hydroxycastanospermine] | 76 |
| OCCN1[C@H](CO)[C@@H](O)[C@H](O)[C@H]1CO [N-hydroxyethyl DMDP] | 22 |
| OC[C@H]1N[C@H](c2ccc(O)cc2)[C@@H](O)[C@@H]1O | 41 |
| OC[C@H]1[C@@H](O)[C@H](O)[C@@H]2[C@@H](O)[C@@H](O)CN21 [Compound 22, 3,7,7a-triepi-casuarine] | 10 |
| OC[C@H]1[C@@H](O)[C@H](O)[C@@H]2[C@@H](O)[C@H](O)CN21 [Compound 21, 3,6,7,7a-tetraepi-casuarine] | 5 |

// batch mode: one % inhibition, Naringinase value per listed entry
1. OC[C@@H]1[C@@H](O)[C@H](O)[C@H]2[C@@H](O)[C@@H](O)CN21 [7-epi-casuarine (11), 7-epi-casuarine]
2. OCCN1C[C@@H](O)[C@H](O)[C@H]1CO

Response given:
["−4", 44]

###

# System: N-acetyl-β-D-glucosaminidase
# testDescription: Glycosidase inhibition: N-acetyl-β-D-glucosaminidase
# Format: biochemical, Bovine
# assayConditions: 1 mg/ml
measureName: % inhibition, N-acetyl-β-gluc

Solved cases below.
| compound | % inhibition, N-acetyl-β-gluc |
| --- | --- |
| O[C@H]1[C@H](O)[C@@H](O)CN2CC[C@H](O)[C@H]12 [Castanospermine (20), Castanospermine, reference compound] | 16% |
| O[C@@H]1[C@@H]2[C@@H](O)[C@H](O)[C@H](O)CN2C[C@H]1O [Compound 35, 2-α-hydroxy-6-epi-castanospermine] | 20% |
| O[C@@H]1[C@@H]2[C@@H](O)[C@H](O)[C@@H](O)CN2C[C@@H]1O [Compound 44, 2-β-hydroxycastanospermine] | 13% |

List reported % inhibition, N-acetyl-β-gluc for each of these compounds:
1. COc1cc([C@H]2N[C@H](CO)[C@@H](O)[C@@H]2O)ccc1O
2. OC[C@H]1[C@@H](O)[C@H](O)[C@H]2[C@@H](O)[C@H](O)CN21 [Compound 12, 3,6,7-triepi-casuarine]
3. OC[C@H]1[C@@H](O)[C@H](O)[C@H]2[C@@H](O)[C@@H](O)CN21 [3,7-diepi-casuarine (10)]

Response given:
["0%", "19%", "−6%"]

###

Answer each item with its documented inhibition at 1000 µg/mL.
# system: α-D-galactosidase (Coffea arabica)
# Construct: purchased Sigma
# testDescription: Glycosidase inhibition: α-D-galactosidase
# Type: biochemical, Green coffee beans (Coffea sp.)
# assayConditions: read-out: % inhibition, galactosidase
# Method: All enzymes were purchased from Sigma, as were the appropriate p-nitrophenyl substrates. Assays were carried out in microtitre plates. […] The reactions were stopped with 0.4M glycine (pH 10.4) during the exponential phase of the reaction, which was determined at the beginning of the assay using blanks with water, which were incubated for a range of time periods to measure the reaction rate using 5 mM substrate solution. […]
Give bare numbers, in %.

Below, each entry is followed by its recorded inhibition at 1000 µg/mL result.
| molecule | unitSymbol | inhibition at 1000 µg/mL |
| --- | --- | --- |
| OC[C@H]1[C@@H](O)[C@H](O)[C@@H]2[C@@H](O)[C@H](O)CN21 [Compound 21, 3,6,7,7a-tetraepi-casuarine] | % | -3 |
| OC[C@H]1[C@@H](O)[C@H](O)[C@H]2[C@H](O)[C@@H](O)CN21 [3-epi-casuarine (14), 3-epi-casuarine] | % | 4 |
| OC[C@@H]1[C@@H](O)[C@H](O)[C@H]2[C@@H](O)[C@@H](O)CN21 [7-epi-casuarine (11), 7-epi-casuarine] | % | 1 |

Need inhibition at 1000 µg/mL for each of these molecules.
1. OC[C@H]1[C@@H](O)[C@H](O)[C@H]2[C@@H](O)[C@H](O)CN21 [Compound 12, 3,6,7-triepi-casuarine]
2. OC[C@@H]1[C@@H](O)[C@H](O)[C@H]2[C@H](O)[C@@H](O)CN21

Response given:
2
4

###

# system: α-D-mannosidase (Canavalia ensiformis, UniProt C0HJB3)
# Construct: purchased Sigma
# Sequence (C0HJB3 whole entry): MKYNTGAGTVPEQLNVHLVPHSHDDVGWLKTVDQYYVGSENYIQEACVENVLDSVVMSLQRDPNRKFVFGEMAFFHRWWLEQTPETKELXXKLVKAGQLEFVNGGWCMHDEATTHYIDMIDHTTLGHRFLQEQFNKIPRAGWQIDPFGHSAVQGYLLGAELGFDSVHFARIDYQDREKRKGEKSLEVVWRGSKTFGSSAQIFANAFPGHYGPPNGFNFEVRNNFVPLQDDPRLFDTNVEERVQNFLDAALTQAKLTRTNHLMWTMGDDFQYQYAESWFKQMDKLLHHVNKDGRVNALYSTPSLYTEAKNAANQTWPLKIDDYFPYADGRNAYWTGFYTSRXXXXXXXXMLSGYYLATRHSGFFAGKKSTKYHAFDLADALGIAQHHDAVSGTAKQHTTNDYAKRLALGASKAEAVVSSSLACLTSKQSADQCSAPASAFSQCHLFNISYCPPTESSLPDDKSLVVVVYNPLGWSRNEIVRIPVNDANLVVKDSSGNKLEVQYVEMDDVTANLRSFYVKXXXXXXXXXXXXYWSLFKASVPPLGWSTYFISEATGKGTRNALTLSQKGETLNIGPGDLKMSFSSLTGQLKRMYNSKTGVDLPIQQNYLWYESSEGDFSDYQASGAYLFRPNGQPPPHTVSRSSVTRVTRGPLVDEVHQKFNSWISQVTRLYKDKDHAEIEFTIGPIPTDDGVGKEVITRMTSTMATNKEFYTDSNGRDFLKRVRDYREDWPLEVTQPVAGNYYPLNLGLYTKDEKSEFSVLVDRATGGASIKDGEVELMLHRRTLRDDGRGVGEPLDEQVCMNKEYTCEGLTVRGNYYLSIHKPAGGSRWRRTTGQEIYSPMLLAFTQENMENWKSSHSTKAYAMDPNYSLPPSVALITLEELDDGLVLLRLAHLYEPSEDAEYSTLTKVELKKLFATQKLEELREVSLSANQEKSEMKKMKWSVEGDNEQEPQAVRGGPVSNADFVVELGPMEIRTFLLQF
# testDescription: Glycosidase inhibition: α-D-mannosidase
# Type: biochemical, Jack beans (Canavalia ensiformis)
# assayConditions: read-out: % inhibition, α-mannosidase
Output True for inhibition at 1000 µg/mL not less than 10%; output False otherwise.

Please review the entries below; each comes with its answer.
| compound | answerLabel |
| --- | --- |
| O[C@@H]1[C@@H]2[C@@H](O)[C@H](O)[C@H](O)CN2C[C@H]1O [Compound 35, 2-α-hydroxy-6-epi-castanospermine] | True |
| OCCN1[C@H](CO)[C@@H](O)[C@H](O)[C@H]1CO [N-hydroxyethyl DMDP] | True |
| O[C@@H]1[C@@H]2[C@@H](O)[C@H](O)[C@@H](O)CN2C[C@H]1O [Compound 64, 2-α-hydroxycastanospermine] | True |
| OC[C@H]1N[C@H](c2ccc(O)cc2)[C@@H](O)[C@@H]1O | True |
| COc1cc([C@H]2N[C@H](CO)[C@@H](O)[C@@H]2O)ccc1O | False |

Challenge: Exam item: decide whether the reported inhibition at 1000 µg/mL for OCC1N[C@H](CO)[C@@H](O)[C@@H]1O (some centres unmarked) is at least 10%.
Response given: True

Challenge: Is inhibition at 1000 µg/mL at least 10%? Consider OCCN1C[C@@H](O)[C@H](O)[C@H]1CO
Response given: False

Challenge: Does inhibition at 1000 µg/mL meet or surpass 10% for O[C@@H]1[C@@H]2[C@@H](O)[C@H](O)[C@@H](O)CN2C[C@@H]1O [Compound 44, 2-β-hydroxycastanospermine] ?
Response given: False
